# Study target: HIV protease (Human immunodeficiency virus type 1 group M subtype B)
# Experiment description: biochemical
Value kind: Ki

# Structure smiles string, Ki
measured = [
    ("CC(C)CN([C@H](CO)CCCCNC(=O)[C@@H](NC(=O)c1ccc([N+](=O)[O-])c(O)c1)C(c1ccccc1)c1ccccc1)S(=O)(=O)c1ccc(N)cc1", "< 3.8 nM"),
]

Recall the recorded Ki for CCN[C@@H](Cc1ccc2ccccc2c1)C(=O)NCCCC[C@@H](CO)N(CC(C)C)S(=O)(=O)c1ccc(N)cc1 with HIV protease (Human immunodeficiency virus type 1 group M subtype B) and state it.
6.2 nM

Recall the recorded Ki for COC(=O)N[C@@H](Cc1ccc2ccccc2c1)C(=O)NCCCC[C@@H](CO)N(CC(C)C)S(=O)(=O)c1ccc(N)c(F)c1 with HIV protease (Human immunodeficiency virus type 1 group M subtype B) and state it.
< 3.8 nM
